Test system: Rattus norvegicus
Test: Antisecretory activity was evaluated in acute gastric fistula of rat after peroral administration
Type: functional
Details: Stomach, po
readout label: ED50 (mg/kg)
Numbers only, in mg/kg.

Here is how some molecules turned out for ED50.
- molecule: "COC(=O)CCCCCCC/N=C/N1CCC(C(c2ccccc2)c2ccccc2)CC1.O=C(O)/C=C/C(=O)O"
  study system: "Rattus norvegicus"
  value unit: "mg/kg"
  ED50: 10.1
- molecule: "CN1[C@@H]2CC[C@H]1C[C@@H](OC(=O)C(CO)c1ccccc1)C2 (some centres undefined)"
  study system: "Rattus norvegicus"
  value unit: "mg/kg"
  ED50: 1.1

Input `CN/C(=N\CCSCc1nc[nH]c1C)NC#N` , output reported ED50.
7.6
